Reported IC50 values for the following molecules.
# test_system: uACC (Ustilago maydis ACC) (Ustilago maydis, UniProt A0A0D1DYD5)
# Sequence (A0A0D1DYD5 entry or part of it): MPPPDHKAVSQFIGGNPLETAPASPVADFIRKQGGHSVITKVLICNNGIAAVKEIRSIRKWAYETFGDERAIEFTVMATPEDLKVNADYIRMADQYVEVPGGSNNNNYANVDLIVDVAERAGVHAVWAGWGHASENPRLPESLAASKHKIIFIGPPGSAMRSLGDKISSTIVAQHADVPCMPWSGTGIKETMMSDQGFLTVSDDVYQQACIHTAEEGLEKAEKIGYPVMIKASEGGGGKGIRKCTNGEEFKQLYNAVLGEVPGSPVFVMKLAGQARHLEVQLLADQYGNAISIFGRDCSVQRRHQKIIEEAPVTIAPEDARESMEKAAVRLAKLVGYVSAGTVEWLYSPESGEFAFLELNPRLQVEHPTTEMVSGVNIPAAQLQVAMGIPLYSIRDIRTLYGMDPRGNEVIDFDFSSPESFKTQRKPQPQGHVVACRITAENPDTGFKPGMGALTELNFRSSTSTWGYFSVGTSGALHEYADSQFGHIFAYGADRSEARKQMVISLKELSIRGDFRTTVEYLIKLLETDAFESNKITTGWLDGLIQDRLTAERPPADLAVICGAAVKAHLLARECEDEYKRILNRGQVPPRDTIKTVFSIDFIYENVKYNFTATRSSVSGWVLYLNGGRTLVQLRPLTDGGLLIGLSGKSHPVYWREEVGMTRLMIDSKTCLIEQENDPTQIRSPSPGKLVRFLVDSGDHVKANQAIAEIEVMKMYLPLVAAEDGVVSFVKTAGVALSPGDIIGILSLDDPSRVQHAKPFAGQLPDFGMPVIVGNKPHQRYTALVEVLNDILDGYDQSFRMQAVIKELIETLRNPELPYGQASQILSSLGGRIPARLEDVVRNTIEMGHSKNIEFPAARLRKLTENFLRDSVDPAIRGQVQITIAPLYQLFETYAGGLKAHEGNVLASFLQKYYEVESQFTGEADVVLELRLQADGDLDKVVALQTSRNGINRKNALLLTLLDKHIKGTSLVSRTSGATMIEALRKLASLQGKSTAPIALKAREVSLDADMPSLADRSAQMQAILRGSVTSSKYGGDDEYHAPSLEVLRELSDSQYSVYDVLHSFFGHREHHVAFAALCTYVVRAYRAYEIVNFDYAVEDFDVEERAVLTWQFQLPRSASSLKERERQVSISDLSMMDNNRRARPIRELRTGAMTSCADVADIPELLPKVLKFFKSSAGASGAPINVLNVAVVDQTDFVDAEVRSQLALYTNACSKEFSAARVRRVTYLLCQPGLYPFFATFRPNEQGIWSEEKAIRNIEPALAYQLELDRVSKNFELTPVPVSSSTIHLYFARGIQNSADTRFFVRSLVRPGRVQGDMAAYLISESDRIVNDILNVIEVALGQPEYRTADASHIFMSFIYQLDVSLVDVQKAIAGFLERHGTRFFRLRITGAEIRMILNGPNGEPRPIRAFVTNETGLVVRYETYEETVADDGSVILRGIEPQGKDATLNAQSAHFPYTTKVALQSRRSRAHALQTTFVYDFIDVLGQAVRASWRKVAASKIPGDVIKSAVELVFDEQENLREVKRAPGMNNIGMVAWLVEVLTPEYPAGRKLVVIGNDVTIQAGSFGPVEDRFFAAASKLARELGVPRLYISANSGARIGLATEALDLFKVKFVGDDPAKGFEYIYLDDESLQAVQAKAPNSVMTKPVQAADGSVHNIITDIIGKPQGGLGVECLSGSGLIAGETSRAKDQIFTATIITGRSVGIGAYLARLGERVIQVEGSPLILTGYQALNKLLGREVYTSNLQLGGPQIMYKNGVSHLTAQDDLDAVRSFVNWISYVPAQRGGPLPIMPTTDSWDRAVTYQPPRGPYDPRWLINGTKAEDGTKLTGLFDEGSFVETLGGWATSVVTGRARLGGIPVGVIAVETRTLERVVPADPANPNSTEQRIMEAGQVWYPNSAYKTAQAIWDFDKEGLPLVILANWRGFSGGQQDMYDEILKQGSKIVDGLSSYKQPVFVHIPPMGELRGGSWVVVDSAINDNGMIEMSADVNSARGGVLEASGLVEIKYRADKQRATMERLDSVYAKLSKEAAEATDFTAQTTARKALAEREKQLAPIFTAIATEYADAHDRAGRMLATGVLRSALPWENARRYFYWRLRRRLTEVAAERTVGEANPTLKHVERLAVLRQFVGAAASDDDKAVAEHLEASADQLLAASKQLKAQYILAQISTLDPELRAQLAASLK
# procedure_summary: [14C]bicarbonate incorporation assay, overall ACC activity
# Type: biochemical
Write the value in µM as a bare number.

Guide cases for IC50, answers given:
{"molecule": "COc1cc(C(=O)N2CCC3(CC2)NC(=O)c2cc(C)ccc2O3)cc2c(OC)cccc12 [Compound 145]", "reported_result": 5.2}
{"molecule": "COc1cc(C(=O)N2CCC3(CC2)NC(=O)c2cc(NC(C)=O)ccc2O3)nc2c(C3CC3)cccc12 [Compound 33]", "reported_result": 19.3}
{"molecule": "O=C1NC2(CCN(C(=O)c3sc4ccccc4c3Cl)CC2)Oc2ccc(Br)cc21 [Compound 1]", "reported_result": 160}
{"molecule": "COc1ccc(OC)c2[nH]c(C(=O)N3CCC4(CC3)NC(=O)c3ccccc3O4)cc12 [Compound 7]", "reported_result": 20}
{"molecule": "CCOc1ccc2c(c1)C(=O)NC1(CCN(C(=O)c3cc(OC)c4cccc(OC)c4c3)CC1)O2 [Compound 146]", "reported_result": 3}
{"molecule": "COc1cc(C(=O)N2CCC3(CC2)NC(=O)c2cc(Br)ccc2O3)nc2c(OC)cccc12 [Compound 2]", "reported_result": 11}

## Task Could you tell me which IC50 is on file for COc1cc2c(OC)cccc2cc1C(=O)N1CCC2(CC1)NC(=O)c1cc(Br)ccc1O2 [Compound 3] ?
## Result 90

## Task Could you share which IC50 value was measured for COc1cc(C(=O)N2CCC3(CC2)NC(=O)c2cc(Br)ccc2O3)cc2c(OC)cccc12 [Compound 30] ?
## Result 20

## Task Query: IC50; subject: CCOc1ccc2c(c1)C(=O)NC1(CCN(C(=O)c3[nH]c4c(OC)cccc4c3C)CC1)O2 [Compound 144]
## Result 14

## Task Record request: IC50 value, item Cc1nn(C)c2sc(C(=O)N3CCC4(CC3)NC(=O)c3cc(Br)ccc3O4)cc12 [Compound 4]
## Result 50

* * *

# test_system: hACC2 (Homo sapiens)
# Construct: delete amino acids 1-148 and add Met-Gly in front of Lys149 in the final product; His tag (C)
# Sequence (O00763 149-2458 limits assumed): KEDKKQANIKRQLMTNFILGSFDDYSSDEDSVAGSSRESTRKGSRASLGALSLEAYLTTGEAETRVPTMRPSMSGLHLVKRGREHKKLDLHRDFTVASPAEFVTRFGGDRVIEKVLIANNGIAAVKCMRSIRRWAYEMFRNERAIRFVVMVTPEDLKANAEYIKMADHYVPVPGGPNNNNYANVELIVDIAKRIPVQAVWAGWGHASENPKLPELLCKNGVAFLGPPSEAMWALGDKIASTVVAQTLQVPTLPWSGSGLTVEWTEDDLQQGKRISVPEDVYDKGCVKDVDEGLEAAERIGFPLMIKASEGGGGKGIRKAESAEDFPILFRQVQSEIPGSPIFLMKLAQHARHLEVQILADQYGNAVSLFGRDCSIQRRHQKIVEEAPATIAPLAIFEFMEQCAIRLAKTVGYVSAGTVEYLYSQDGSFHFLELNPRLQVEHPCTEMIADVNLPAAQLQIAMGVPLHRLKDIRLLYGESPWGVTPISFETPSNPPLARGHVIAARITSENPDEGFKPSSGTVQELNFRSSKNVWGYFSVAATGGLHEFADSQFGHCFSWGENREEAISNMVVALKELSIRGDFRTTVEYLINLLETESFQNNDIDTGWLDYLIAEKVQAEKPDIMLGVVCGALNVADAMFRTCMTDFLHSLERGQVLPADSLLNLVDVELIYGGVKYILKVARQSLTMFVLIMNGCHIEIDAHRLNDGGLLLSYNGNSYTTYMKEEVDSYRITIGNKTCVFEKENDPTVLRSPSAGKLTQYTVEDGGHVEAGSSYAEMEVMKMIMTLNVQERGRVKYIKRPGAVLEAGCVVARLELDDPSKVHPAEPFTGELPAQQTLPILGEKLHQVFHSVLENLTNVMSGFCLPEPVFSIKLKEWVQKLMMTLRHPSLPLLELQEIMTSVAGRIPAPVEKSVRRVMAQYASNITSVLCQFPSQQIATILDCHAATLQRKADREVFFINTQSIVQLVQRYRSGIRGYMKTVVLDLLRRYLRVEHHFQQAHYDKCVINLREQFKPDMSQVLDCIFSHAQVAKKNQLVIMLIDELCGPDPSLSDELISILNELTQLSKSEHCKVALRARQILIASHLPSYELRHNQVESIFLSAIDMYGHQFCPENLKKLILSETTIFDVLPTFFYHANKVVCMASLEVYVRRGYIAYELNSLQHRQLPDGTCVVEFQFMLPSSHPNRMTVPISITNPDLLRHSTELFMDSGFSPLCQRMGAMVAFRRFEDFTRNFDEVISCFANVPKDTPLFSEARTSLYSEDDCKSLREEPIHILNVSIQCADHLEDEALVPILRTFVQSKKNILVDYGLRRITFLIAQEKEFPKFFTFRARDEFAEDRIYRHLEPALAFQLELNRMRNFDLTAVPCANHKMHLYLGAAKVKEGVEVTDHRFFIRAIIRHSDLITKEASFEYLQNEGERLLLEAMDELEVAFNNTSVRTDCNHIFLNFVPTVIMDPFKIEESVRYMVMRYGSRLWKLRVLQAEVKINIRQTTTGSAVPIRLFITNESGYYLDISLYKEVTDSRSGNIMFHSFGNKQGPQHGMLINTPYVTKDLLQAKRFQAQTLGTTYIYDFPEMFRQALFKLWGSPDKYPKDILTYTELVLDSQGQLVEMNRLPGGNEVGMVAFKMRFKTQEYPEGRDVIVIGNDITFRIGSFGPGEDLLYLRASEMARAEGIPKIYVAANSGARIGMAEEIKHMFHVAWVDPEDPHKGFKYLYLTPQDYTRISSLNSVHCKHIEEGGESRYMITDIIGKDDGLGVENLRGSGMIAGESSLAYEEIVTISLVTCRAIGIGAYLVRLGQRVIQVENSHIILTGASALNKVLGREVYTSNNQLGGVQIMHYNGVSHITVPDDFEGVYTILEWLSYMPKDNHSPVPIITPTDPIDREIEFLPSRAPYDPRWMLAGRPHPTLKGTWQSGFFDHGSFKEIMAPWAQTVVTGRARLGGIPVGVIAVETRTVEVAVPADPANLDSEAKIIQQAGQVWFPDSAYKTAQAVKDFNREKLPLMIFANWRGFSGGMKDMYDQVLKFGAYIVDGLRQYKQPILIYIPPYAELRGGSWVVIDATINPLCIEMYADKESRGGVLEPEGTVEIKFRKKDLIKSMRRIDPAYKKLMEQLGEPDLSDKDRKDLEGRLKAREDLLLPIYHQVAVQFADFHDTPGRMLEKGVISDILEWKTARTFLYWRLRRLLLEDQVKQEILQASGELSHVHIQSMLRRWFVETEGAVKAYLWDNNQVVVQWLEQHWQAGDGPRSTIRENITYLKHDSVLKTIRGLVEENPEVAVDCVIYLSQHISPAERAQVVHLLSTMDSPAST
# procedure_summary: [14C]bicarbonate incorporation assay, overall ACC activity
# measurement_setup: recombinant hACC2, overall ACC activity
Quick rule for you: IC50 under 300 nM gets Satisfied, anything else gets Not satisfied.

Examples from the recorded data:
{"smiles_entry": "COc1ccc(OC)c2[nH]c(C(=O)N3CCC4(CC3)NC(=O)c3cc(NC(C)=O)ccc3O4)cc12", "test_system": "hACC2 (Homo sapiens)", "class_label": "Not satisfied"}
{"smiles_entry": "COc1cccc2ccc(C(=O)N3CCC4(CC3)NC(=O)c3cc(Br)ccc3O4)nc12", "test_system": "hACC2 (Homo sapiens)", "class_label": "Not satisfied"}
{"smiles_entry": "COc1cc(C(=O)N2CCC3(CC2)NC(=O)c2cc(C)ccc2O3)nc2c(OC)cccc12", "test_system": "hACC2 (Homo sapiens)", "class_label": "Satisfied"}

## Task Does `O=C1NC2(CCN(C(=O)c3sc4ccccc4c3Cl)CC2)Oc2ccc(Br)cc21` have IC50 strictly under 300 nM?
## Result Not satisfied

## Task Lab log: compare recorded IC50 with 300 nM; is it strictly lower for `CCOc1ccc2c(c1)C(=O)NC1(CCN(C(=O)c3cc(OC)c4cccc(OC)c4c3)CC1)O2` ?
## Result Satisfied

## Task Please state whether IC50 is below 300 nM for `COc1cc2c(OC)cccc2cc1C(=O)N1CCC2(CC1)NC(=O)c1cc(Br)ccc1O2`
## Result Satisfied

## Task Regarding `O=C1NC2(CCN(C(=O)c3cc4c(Cl)cccc4s3)CC2)Oc2ccc(Br)cc21` , kindly confirm whether its IC50 is beneath 300 nM.
## Result Not satisfied

## Task Does the reported IC50 of the following molecule sit strictly below 300 nM? `COc1cc(C(=O)N2CCC3(CC2)NC(=O)c2cc(C)c(C)cc2O3)nc2c(OC)cccc12`
## Result Satisfied

## Task Is IC50 of `CCOc1ccc2c(c1)C(=O)NC1(CCN(C(=O)c3cc(OC)c4cccc(OC)c4n3)CC1)O2` strictly below 300 nM?
## Result Satisfied

## Task Is IC50 of `COc1cc2c(OC)cccc2cc1C(=O)N1CCC2(CC1)NC(=O)c1cc(Br)ccc1N2` strictly below 300 nM?
## Result Not satisfied

## Task Confirm or reject: IC50 of `COc1ccc2c(c1)C(=O)NC1(CCN(C(=O)c3cc(OC)c4cccc(OC)c4c3)CC1)O2` lies strictly below 300 nM
## Result Satisfied

## Task Check if IC50 falls below 300 nM for `COc1ccc2cc3c(cc2c1)C(=O)NC1(CCN(C(=O)c2[nH]c4c(OC)cccc4c2C)CC1)O3` .
## Result Satisfied

## Task IC50 strictly < 300 nM for this molecule? `COc1ccc(OC)c2[nH]c(C(=O)N3CCC4(CC3)NC(=O)c3cc(OC(C)C)ccc3O4)cc12`
## Result Not satisfied

* * *

# test_system: hACC1 (Homo sapiens)
# Construct: PCR primers were designed for full-length hACC1 and hACC2 using GenBank submissions AY237919 and AJ575592, respectively; His tag (C)
# procedure_summary: [14C]bicarbonate incorporation assay, overall ACC activity
# measurement_setup: recombinant hACC1, overall ACC activity
# Method: In vitro IC50 values of human ACC were determined using recombinant enzyme produced by standard procedures. For example, full-length cDNAs for both the human isoforms (hACC1 and hACC2) were each cloned and expressed as a recombinant protein using a baculovirus system. Double stranded cDNA from human fetal liver (Quick-Clone cDNA, cat. #7171-1) was purchased from BD/Clontech (Mt. View, Calif.). […]
pIC50: −log10 of the molar value.
Kind request: treat 8 as inclusive, so pIC50 at 8 or higher is Condition met, anything lower is Condition not met.

{"smiles_entry": "COc1ccc2c(c1)C(=O)NC1(CCN(C(=O)c3cc4c(OC)ccc(OC)c4[nH]3)CC1)O2", "test_system": "hACC1 (Homo sapiens)", "class_label": "Condition not met"}
{"smiles_entry": "COc1ccc2c(c1)C(=O)NC1(CCN(C(=O)c3cc(OC)c4cccc(SC)c4n3)CC1)O2", "test_system": "hACC1 (Homo sapiens)", "class_label": "Condition not met"}
{"smiles_entry": "COc1cc(C(=O)N2CCC3(CC2)NC(=O)c2cc(Br)ccc2O3)nc2c(C(C)C)cccc12", "test_system": "hACC1 (Homo sapiens)", "class_label": "Condition not met"}
{"smiles_entry": "COc1cccc2c(C)c(C(=O)N3CCC4(CC3)NC(=O)c3cc(N)ccc3O4)[nH]c12", "test_system": "hACC1 (Homo sapiens)", "class_label": "Condition not met"}
{"smiles_entry": "CCOc1ccc2c(c1)C(=O)NC1(CCN(C(=O)c3cc(OC)c4cccc(OC)c4c3)CC1)O2", "test_system": "hACC1 (Homo sapiens)", "class_label": "Condition met"}
{"smiles_entry": "COc1cc(C(=O)N2CCC3(CC2)NC(=O)c2cc(Cl)ccc2O3)cc2c(OC)cccc12", "test_system": "hACC1 (Homo sapiens)", "class_label": "Condition not met"}
{"smiles_entry": "COc1cc(C(=O)N2CCC3(CC2)NC(=O)c2cc(OC(C)C)ccc2O3)cc2[nH]ncc12", "test_system": "hACC1 (Homo sapiens)", "class_label": "Condition not met"}
{"smiles_entry": "O=C1NC2(CCN(C(=O)c3cc4c(Cl)cccc4s3)CC2)Oc2ccc(Br)cc21", "test_system": "hACC1 (Homo sapiens)", "class_label": "Condition not met"}
{"smiles_entry": "COc1cc2c(OC)cccc2cc1C(=O)N1CCC2(CC1)NC(=O)c1cc(Br)ccc1N2", "test_system": "hACC1 (Homo sapiens)", "class_label": "Condition not met"}
{"smiles_entry": "COc1ccc2cc3c(cc2c1)C(=O)NC1(CCN(C(=O)c2cc(OC)c4cccc(OC)c4c2)CC1)O3", "test_system": "hACC1 (Homo sapiens)", "class_label": "Condition met"}

## Task Is pIC50 at least 8? Consider `COc1ccc2cc3c(cc2c1)C(=O)NC1(CCN(C(=O)c2cc(OC)c4cccc(OC)c4n2)CC1)O3`
## Result Condition met

## Task # check: pIC50 of `COc1cc(C(=O)N2CCC3(CC2)NC(=O)c2cc(NC(C)=O)ccc2O3)nc2c(SC)cccc12` is greater than or equal to 8
## Result Condition not met

## Task Decide: is the reported value of pIC50 for `COc1ccc2c(c1)C(=O)NC1(CCN(C(=O)c3cc(OC)c4cccc(OC)c4c3)CC1)O2` equal to or greater than 8?
## Result Condition met

## Task In plain terms: is recorded pIC50 at least 8 for `COc1cc2c(OC)cccc2cc1C(=O)N1CCC2(CC1)NC(=O)c1cc(Br)ccc1O2` ?
## Result Condition not met

## Task Say whether `COc1cc(C(=O)N2CCC3(CC2)NC(=O)c2cc(C)c(C)cc2O3)nc2c(SC)cccc12` shows pIC50 of 8 or more.
## Result Condition not met

## Task Assess whether reported pIC50 for `COc1cc(C(=O)N2CCC3(CC2)NC(=O)c2cc(C(C)C)ccc2O3)nc2c(OC)cccc12` sits at 8 or higher.
## Result Condition met

## Task Check the entry `COc1cc(C(=O)N2CCC3(CC2)NC(=O)c2cc(Br)ccc2N3)nc2c(C(C)C)cccc12` : does pIC50 equal or exceed 8?
## Result Condition not met

## Task Determine whether this compound has pIC50 no lower than 8: `COC(=O)c1ccc2c(c1)C(=O)NC1(CCN(C(=O)c3cc(OC)c4cccc(OC)c4n3)CC1)O2`
## Result Condition not met

## Task Threshold query (pIC50 >= 8) on `COc1ccc(OC)c2c1cc(C(=O)N1CCC3(CC1)NC(=O)c1cc(OC(C)C)ccc1O3)n2C`
## Result Condition not met

## Task Does pIC50 meet or surpass 8 for `COc1cc(C(=O)N2CCC3(CC2)NC(=O)c2cc(Br)ccc2O3)nc2c(SC)cccc12` ?
## Result Condition not met

## Task Say whether `COc1ccc2c(c1)C(=O)NC1(CCN(C(=O)c3cc(OC)c4cccc(SC)c4c3)CC1)O2` shows pIC50 of 8 or more.
## Result Condition met

## Task Form field: pIC50 at least 8? Entry: `O=C1NC2(CCN(C(=O)c3sc4ccccc4c3Cl)CC2)Oc2ccc(Br)cc21`
## Result Condition not met

## Task Test whether the compound `COc1ccc2c(c1)C(=O)NC1(CCN(C(=O)c3[nH]c4c(OC)cccc4c3C)CC1)N2` records pIC50 of 8 or higher.
## Result Condition not met

## Task Kindly determine if pIC50 recorded for `COc1cc(C(=O)N2CCC3(CC2)NC(=O)c2cc4ccccc4cc2O3)nc2c(OC)cccc12` is above or exactly 8.
## Result Condition met

## Task Quick check, pIC50 >= 8? `COc1ccc(OC)c2[nH]c(C(=O)N3CCC4(CC3)NC(=O)c3cc(Br)ccc3O4)cc12`
## Result Condition not met
